measurement-notes: In vivo tissue distribution of radioactivity after intravenous administration
Parameters: species or system Sprague Dawley rats
measurement-context: blood, iv; rat, i.v., 2 min; read-out: Blood, Mean % Injected Dose/Gram
reported-endpoint: tissue uptake at 2 min

> print(dat)
                                   compound       reported.endpoint  assay.result
1  CC(C[18F])OC(=O)[C@H]1[C@@H](c2ccc(I)cc2)C[C@@H]2CC[C@H]1N2C (stereo partly shown) [[^18 F] FIPIT 8]  tissue uptake at 2 min    0.14 %ID/g

====

measurement-notes: In vivo tissue distribution of radioactivity after intravenous administration
Design: species or system Sprague Dawley rats
measurement-context: muscle, iv; rat, i.v., 120 min; read-out: Muscle, Mean % Injected Dose/Gram
reported-endpoint: tissue uptake at 2 h (%ID/g)

> print(dat)
                                   molecule  readout.units  assay.result
1  CC(C[18F])OC(=O)[C@H]1[C@@H](c2ccc(I)cc2)C[C@@H]2CC[C@H]1N2C (stereo partly shown) [[^18 F] FIPIT 8]          %ID/g          0.08
